Tested System: Carbonic anhydrase 1 (Homo sapiens, UniProt P00915)
Sequence (P00915 whole entry): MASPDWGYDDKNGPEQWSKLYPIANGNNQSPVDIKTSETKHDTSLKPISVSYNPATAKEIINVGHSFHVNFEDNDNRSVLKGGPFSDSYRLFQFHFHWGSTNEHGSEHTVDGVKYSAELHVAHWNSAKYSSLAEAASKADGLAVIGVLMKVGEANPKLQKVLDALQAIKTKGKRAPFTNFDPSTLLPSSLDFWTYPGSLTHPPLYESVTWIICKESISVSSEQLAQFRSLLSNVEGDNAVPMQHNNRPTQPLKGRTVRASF
Assay Metric: Ki (nM)
Numbers only, in nM.

Solved entries (count: 3):
Compound: CC(=O)N1N=C(c2cccc(OS(N)(=O)=O)c2)CC1c1ccc(C)cc1 (stereo not given)
Unit Abbreviation: nM
Numeric Result: 558

Compound: CC(=O)N1N=C(c2ccc(Cl)cc2)CC1c1ccc(OS(N)(=O)=O)cc1 (stereo not given)
Unit Abbreviation: nM
Numeric Result: 970

Compound: CC(=O)N1N=C(c2cccc(OS(N)(=O)=O)c2)CC1c1cccc(Cl)c1 (stereo not given)
Unit Abbreviation: nM
Numeric Result: 805

List reported Ki for each of these compounds:
1. CC(=O)N1N=C(c2ccc([N+](=O)[O-])cc2)CC1c1ccc(OS(N)(=O)=O)cc1 (stereo not given)
2. CC(=O)N1N=C(c2cccc(OS(N)(=O)=O)c2)CC1c1cc(Cl)ccc1Cl (stereo not given)
3. CC(=O)N1N=C(c2ccc(Cl)c(Cl)c2)CC1c1ccc(OS(N)(=O)=O)cc1 (stereo not given)
4. CC(=O)N1N=C(c2ccc(OS(N)(=O)=O)cc2)CC1c1ccccc1 (stereo not given)
5. CC(=O)N1N=C(c2ccc(C)cc2)CC1c1ccc(OS(N)(=O)=O)cc1 (stereo not given)
6. CC(=O)N1N=C(c2cccc(OS(N)(=O)=O)c2)CC1c1ccc(C(F)(F)F)cc1 (stereo not given)

// result
1: 3820; 2: 2040; 3: 2900; 4: 1310; 5: 2340; 6: 952

// query Print Carbonic anhydrase 1 (Homo sapiens, UniProt P00915) Ki for COc1ccc(C2=NN(C(C)=O)C(c3ccc(OS(N)(=O)=O)cc3)C2)cc1 (stereo not given) .
// result 2980

* * *

Heads up, these compounds all have Ki values measured for Carbonic anhydrase 12 (Homo sapiens, UniProt O43570).
Give bare numbers, in µM.

Compound: CC(=O)N1N=C(c2ccc(Cl)c(Cl)c2)CC1c1cccc(OS(N)(=O)=O)c1 (stereo not given)
Numeric Result: 0.0852

Compound: CC(=O)N1N=C(c2cccc(OS(N)(=O)=O)c2)CC1c1ccccc1 (stereo not given)
Numeric Result: 0.0551

Compound: CC(=O)N1N=C(c2ccc(OS(N)(=O)=O)cc2)CC1c1ccc(Cl)cc1 (stereo not given)
Numeric Result: 0.0273

List reported Ki for each of these compounds:
1. CC(=O)N1N=C(c2cccc(OS(N)(=O)=O)c2)CC1c1ccc(C)cc1 (stereo not given)
2. CC(=O)N1N=C(c2cccc(OS(N)(=O)=O)c2)CC1c1ccc(C(F)(F)F)cc1 (stereo not given)

// result
1: 0.0559; 2: 0.0089

* * *

Heads up, these compounds all have Ki values measured for Carbonic anhydrase 12 (Homo sapiens).
Give bare numbers, in nM.

Solved entries (count: 3):
Compound: COc1ccc(C2CC(c3cccc(OS(N)(=O)=O)c3)=NN2C(C)=O)cc1 (centres undefined)
Tested System: Carbonic anhydrase 12 (Homo sapiens)
Sequence (O43570 whole entry): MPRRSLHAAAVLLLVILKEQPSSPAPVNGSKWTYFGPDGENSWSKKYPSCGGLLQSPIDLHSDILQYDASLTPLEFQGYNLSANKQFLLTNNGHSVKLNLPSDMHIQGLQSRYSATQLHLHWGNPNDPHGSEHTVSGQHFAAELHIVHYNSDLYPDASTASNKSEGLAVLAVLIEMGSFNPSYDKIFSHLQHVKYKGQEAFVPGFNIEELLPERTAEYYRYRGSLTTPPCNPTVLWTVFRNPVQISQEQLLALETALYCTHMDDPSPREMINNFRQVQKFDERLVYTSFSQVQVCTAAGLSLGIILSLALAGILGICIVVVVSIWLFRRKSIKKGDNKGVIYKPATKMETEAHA
Ki / nM: 48.6
--
Compound: CC(=O)N1N=C(c2cccc(OS(N)(=O)=O)c2)CC1c1cc(Cl)ccc1Cl (centres undefined)
Tested System: Carbonic anhydrase 12 (Homo sapiens)
Ki / nM: 34.2
--
Compound: CC(=O)N1N=C(c2cccc(OS(N)(=O)=O)c2)CC1c1ccccc1Cl (centres undefined)
Tested System: Carbonic anhydrase 12 (Homo sapiens)
Ki / nM: 74.4

// query Please report Ki for the following compound: CC(=O)N1N=C(c2ccc(OS(N)(=O)=O)cc2)CC1c1cccc(Cl)c1 (centres undefined)
// result 9.8
